# System: SF-268 CNS
# protocol description: NCI-60 one-dose screen, 48 h (100 = growth as untreated, 0 = no growth, -100 = all killed)
# condition description: 10 µM unless noted
Compounds without any hit were thinned out: in the full panel of roughly 83,000, 20% have a hit.
experimental readout: growth (%)
Use % as the unit, but write only the number.

Examples with answers:
[
  {
    "compound": "CC1(C)N=c2cc3c(cc2N1c1ccc(Cl)cc1)=Nc1ccccc1N3c1ccc(Cl)cc1",
    "reported value": 49.6
  },
  {
    "compound": "CSc1nc(C)c(C(=O)CCN2CCN(c3ccccn3)CC2)s1",
    "reported value": 102
  },
  {
    "compound": "COc1cccc2c1C(=O)c1c(O)c3c(c(O)c1C2=O)C[C@@](O)(C(=O)CO)C[C@@H]3OC1CC(OC(C)=O)C(OC(C)=O)C(C)O1 (stereo not given in full)",
    "reported value": -22.3
  },
  {
    "compound": "Cc1cc(=O)oc2cc(O)cc(O)c12",
    "reported value": 97.7
  },
  {
    "compound": "CC(C)(C)c1ccc(O)c(-c2ccccc2)c1",
    "reported value": 105
  }
]

Lab note: need growth with SF-268 CNS for entry C=C(C(N)=O)C(N)C(=O)O (stereo not given) , please look it up.
106

Can you look up growth on SF-268 CNS for CN1CCC(CN2c3ccccc3Sc3ccccc32)C1 (stereo not given) ?
89.2

Enter reported growth observed with SF-268 CNS for `Fc1ccc(NCCS)cc1`
102

Record lookup: for SF-268 CNS, what growth belongs to `O=Nc1ccc2ccccc2c1O` ?
91.6

Every entry's value here was drawn from PubChem BioAssay (NCI).
